Ref: patent US20100227827A1

Assay: Urinary quinic acid, hippuric acid, tryptophan and nicotinamide by HPLC
Format: in vivo, human
Settings: human, urine, oral, 3000 mg/day, Subject 3000 mg/day, 9 month evaluation period; read-out: Dose recovery (excrete/dose), excreted as unmetabolized quinic acid
property.label: dose excreted at 9 month (%)
Hi! Could you send only the number? It should be in %, unit omitted.

Q: What does the record list as dose excreted at 9 month for O=C(O)[C@]1(O)C[C@@H](O)[C@@H](O)[C@H](O)C1 [Aqua Bimini™, quinic acid ammonium chelate] ?
Result: 56

----------
Assay: Urinary quinic acid, hippuric acid, tryptophan and nicotinamide by HPLC
Type: in vivo, human
Conditions: human, urine, oral, 1500 mg/day, Subject 1500 mg/day, 9 month evaluation period; read-out: Dose recovery (excrete/dose), excreted as unmetabolized quinic acid
property.label: dose excreted at 9 month (%)
Hi! Could you send only the number? It should be in %, unit omitted.

Q: What does the record list as dose excreted at 9 month for O=C(O)[C@]1(O)C[C@@H](O)[C@@H](O)[C@H](O)C1 [Aqua Bimini™, quinic acid ammonium chelate] ?
Result: 40
